testedOn: Carnitine O-palmitoyltransferase 1, liver isoform (Rattus norvegicus)
Sequence (P32198 whole entry, canonical isoform): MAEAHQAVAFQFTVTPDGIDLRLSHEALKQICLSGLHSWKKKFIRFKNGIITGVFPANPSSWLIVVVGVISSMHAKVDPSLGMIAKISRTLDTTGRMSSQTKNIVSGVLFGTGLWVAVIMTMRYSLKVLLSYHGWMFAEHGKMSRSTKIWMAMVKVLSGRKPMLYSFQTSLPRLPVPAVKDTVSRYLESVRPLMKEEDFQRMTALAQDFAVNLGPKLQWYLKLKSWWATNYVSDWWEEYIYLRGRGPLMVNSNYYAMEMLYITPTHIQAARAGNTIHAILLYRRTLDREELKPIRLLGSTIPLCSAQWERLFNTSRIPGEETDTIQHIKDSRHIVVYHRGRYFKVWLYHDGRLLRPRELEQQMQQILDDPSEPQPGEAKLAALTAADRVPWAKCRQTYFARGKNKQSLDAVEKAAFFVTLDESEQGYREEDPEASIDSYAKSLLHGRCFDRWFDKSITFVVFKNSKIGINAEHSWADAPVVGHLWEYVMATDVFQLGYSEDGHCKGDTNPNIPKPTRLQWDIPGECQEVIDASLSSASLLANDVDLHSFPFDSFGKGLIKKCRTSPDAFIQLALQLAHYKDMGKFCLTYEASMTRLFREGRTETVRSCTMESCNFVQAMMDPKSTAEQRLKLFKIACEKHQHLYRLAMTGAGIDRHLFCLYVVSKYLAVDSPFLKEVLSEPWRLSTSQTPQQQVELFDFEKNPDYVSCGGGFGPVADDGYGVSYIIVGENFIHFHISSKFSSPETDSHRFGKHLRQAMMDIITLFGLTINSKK
assayText: SUPPLEMENTARY: Inhibition of Carnitine palmitoyltransferase 1, liver isoform
# strict inequality: IC50 < 100 nM yields True, everything else yields False

Worked set:
Given CCOc1ccc(C(=O)Nc2ccc(C(=O)O)c(F)c2)cc1N(CCS(=O)O)S(=O)(=O)c1cc(Cl)ccc1OC , is recorded IC50 strictly lower than 100 nM?
False

Given Cc1ncc(-c2noc([C@H]3CCCCN3C(=O)COc3ccccc3)n2)c(=O)[nH]1 , is recorded IC50 strictly lower than 100 nM?
False

Given COc1ccc(Cl)cc1CN1C(=O)CSc2ccc(C(=O)Nc3nc(CC(=O)O)cs3)cc21 , is recorded IC50 strictly lower than 100 nM?
True

Given COc1ccc(Cl)cc1S(=O)(=O)N1CCCCc2ccc(C(=O)Nc3ccc(C(=O)O)cc3)cc21 , is recorded IC50 strictly lower than 100 nM?
False

As a next step, examine the molecule that follows.
Given O=C(Nc1ccc(C(=O)O)c(F)c1)c1ccc2c(c1)N(S(=O)(=O)c1cccc(C(F)(F)F)c1)CC2 , is recorded IC50 strictly lower than 100 nM?
True
